- subject.of.test: γ-secretase (Homo sapiens, UniProt P49768)
- assay.overview: Screening for γ-secretase-modulating activity in SKNBE2 cells carrying APP 695 wild type (assay of Citron et al 1997)
- Type: cell-based
- conditions: SKNBE2, @ 1 uM; SKNBE2 cells carrying the APP 695 wild type
readout.label: inhibition at 1 µM (%)

Example cases with answers are listed next.
>>> numeric_result("CC(C)CC(C(=O)O)c1cc(-c2ccc(C(F)(F)F)cc2)cc(C2CCCN(Cc3ccc(OC(F)(F)F)cc3)C2)c1 (centres unmarked)")
61
>>> numeric_result("CC(C)CC(C(=O)O)c1cc(-c2ccc(C(F)(F)F)cc2)cc(C2CCCN(C(C)c3ccc(C(F)(F)F)cc3)C2)c1 (single isomer, unassigned)")
44
>>> numeric_result("CC(C)CC(C(=O)O)c1cc(-c2ccc(C(F)(F)F)cc2)cc(C2CCCN(Cc3cc(C(F)(F)F)cc(C(F)(F)F)c3)C2)c1 (centres unmarked)")
57
>>> numeric_result("CC(C)CC(C(=O)O)c1cc(-c2ccc(C(F)(F)F)cc2)cc(C2CCC(C(F)(F)F)N(Cc3cccc(C(F)(F)F)c3)C2)c1 (centres unmarked)")
68
>>> numeric_result("CCC1CCCCN1c1cc(-c2ccc(C(F)(F)F)cc2)cc(C(CC(C)C)C(=O)O)c1 (centres unmarked)")
45
>>> numeric_result("CC(C)CC(C(=O)O)c1cc(-c2ccc(C(F)(F)F)cc2)cc(C2CCC(C(F)(F)F)CN2C)c1 (centres unmarked)")
30
>>> numeric_result("CC(C)CC(C(=O)O)c1cc(-c2ccc(C(F)(F)F)cc2)cc(C2CCCN(C(=O)c3ccc(C(F)(F)F)cc3)C2)c1 (centres unmarked)")
55
>>> numeric_result("CC(C)CCN1CCCC(c2cc(-c3ccc(C(F)(F)F)cc3)cc(C(CC(C)C)C(=O)O)c2)C1 (centres unmarked)")
5
>>> numeric_result("CC(C)CC(C(=O)O)c1cc(-c2ccc(C(F)(F)F)cc2)cc(C2CCCN(Cc3ccc(Oc4ccc(F)cc4)cc3)C2)c1 (centres unmarked)")
59
>>> numeric_result("CC(C)CC(C(=O)O)c1cc(-c2ccc(C(F)(F)F)cc2)cc(N2CCN(c3ccc(F)c(F)c3)CC2)c1 (centres unmarked)")
28

I: CC(C)CC(C(=O)O)c1cc(-c2ccc(C(F)(F)F)cc2)cc(C2CCC(C(F)(F)F)CN2)c1 (centres unmarked)
II: CC(C)CCC(c1ccc(C(F)(F)F)cc1)N1CCC(c2cc(-c3ccc(C(F)(F)F)cc3)cc(C(CC(C)C)C(=O)O)c2)CC1 (centres unmarked)
For the pair I and II , which member has the lower inhibition at 1 µM number? Give the label under which the chosen entry appears.
I
(I: 30%, II: 51%)

a: CC(C)CC(C(=O)O)c1cc(-c2ccc(C(F)(F)F)cc2)cc(C2CCCN(c3ccccc3)C2)c1 (centres unmarked)
b: CC(C)CC(C(=O)O)c1cc(-c2ccc(C(F)(F)F)cc2)cc(C2CC[N+](C)(C)CC2)c1 (centres unmarked)
Dear colleague, could you let me know whether a or b has the lower recorded inhibition at 1 µM? Thanks. Answer format: the label of the selected item.
b

---

- subject.of.test: γ-secretase (Homo sapiens, UniProt P49768)
- assay.overview: Screening for γ-secretase-modulating activity in SKNBE2 cells carrying APP 695 wild type (assay of Citron et al 1997)
- Format: cell-based
- conditions: SKNBE2, @ 1 uM; SKNBE2 cells carrying the APP 695 wild type
readout.label: inhibition at 1 µM (%)

>>> numeric_result("CC(C)CC(C(=O)O)c1cc(-c2ccc(C(F)(F)F)cc2)cc(C2CCCN(S(=O)(=O)c3ccccc3C(F)(F)F)C2)c1 (stereo not drawn) [Example 42]")
63
>>> numeric_result("CC(C)CCN1CCC(c2cc(-c3ccc(C(F)(F)F)cc3)cc(C(CC(C)C)C(=O)O)c2)CC1 (stereo not drawn) [Example 76]")
11
>>> numeric_result("CC(C)CC(C(=O)O)c1cc(-c2ccc(C(F)(F)F)cc2)cc(C2CCCN(S(=O)(=O)c3cccc(C(F)(F)F)c3)C2)c1 (stereo not drawn) [Example 40]")
70
>>> numeric_result("COCCCC1CCCCN1c1cc(-c2ccc(C(F)(F)F)cc2)cc([C@@H](CC(C)C)C(=O)O)c1 (stereo partly drawn) [Example 60]")
52

A: CC(C)CC(C(=O)O)c1cc(-c2ccc(C(F)(F)F)cc2)cc(C2CCN(Cc3cc(F)cc(F)c3)CC2)c1 (stereo not drawn) [Example 75]
B: CC(C)CC(C(=O)O)c1cc(-c2ccc(C(F)(F)F)cc2)cc(C2CCCN(S(=O)(=O)c3cccc4cnccc34)C2)c1 (stereo not drawn) [Example 41]
Param pair: A , B . Output: the one whose inhibition at 1 µM is numerically greater. When you have decided, please share the label of that item.
B
(B: 70%, A: 46%)
